tested on: HEK293T; experiment: median enrichment of reporter reads in eGFP-reduced (low/intermediate) vs eGFP-high sorted cells (eGFP-extension fusion abundance) (ratio); higher = stronger loss of eGFP-fusion protein abundance (more destabilising extension);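 also: lentiviral eGFP-IRES-mCherry reporter pool sorted by FACS 96 h post-transduction, gated on mCherry-high cells, Illumina read counts normalized per million, median across four biological replicates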
# median enrichment annotations

>  <substance>
YSFTNQVP [SMAD2]

>  <median enrichment>
0.532

$$$$
>  <substance>
KRGCGSQGGLQGTGMSGGHQAQRKRKQREFTGPPEKSQSDVCRHLPIPASLARALLGPEQRRTCPTHTAIYSSRHRAPLPYSW [CRHR2]

>  <median enrichment>
4.02

$$$$
>  <substance>
RAHELRL [TNFAIP8]

>  <median enrichment>
0.408

$$$$
>  <substance>
WRPPHFRFGFRKTFSEKKLFF [TFDP1]

>  <median enrichment>
5.19

$$$$
>  <substance>
EGLATPVKAVLLLDTISSSGRAVERESNFLLEEYLCLLTLN [CDC14A]

>  <median enrichment>
6.01

$$$$
>  <substance>
YILDLFYFLWSKFWCD [MIER1]

>  <median enrichment>
7.56

$$$$
>  <substance>
SGKWCFPQEDYWNWMTSE [ACBD5]

>  <median enrichment>
2

$$$$
>  <substance>
RGASLLSSHSGSSFHPPPSPPPTRGTWWREAGRLFCGIARSSLWCRLVAITCNKAPGKGK [TLE6]

>  <median enrichment>
21.9

$$$$
>  <substance>
GSSTETGASSSSLGCGPSSRTRTSATSRASWRAWASARAASSLTASAASSAA [CCM2L]

>  <median enrichment>
13.6

$$$$
>  <substance>
WMQLVCHSI [SERPINB4]

>  <median enrichment>
10.7

$$$$
>  <substance>
CPADTLPPPAPSTLSWAPPYLNL [NGF]

>  <median enrichment>
0.552

$$$$
>  <substance>
SVPRPCQPCCTGCRHCTRCEGSTPAQAEFLGSTSPAAWGTGIAHSVNGSTPAWAESLGSDLAAWGESLGSVLAAWGAGIAQSM [WNT9A]

>  <median enrichment>
7.93

$$$$
>  <substance>
CFWNRVKLSQRRRKSPGICTS [PPP1R14C]

>  <median enrichment>
13.7

$$$$
>  <substance>
TTTTTTTT [Thr08]

>  <median enrichment>
0.414

$$$$
>  <substance>
SIPHPGSSAPRAGGHLRSVISL [IP6K2]

>  <median enrichment>
0.975

$$$$
>  <substance>
EVKGSIQVLHLVLPCLLSDHSDGLMWLLMWNCRRVQRRVCNKAIGKHTGAFPSPSGPRPLSKLDNFLLSCLFPALKLKQEIFW [HS3ST3B1]

>  <median enrichment>
9.3

$$$$
>  <substance>
HFWGVTDFVHGFKVYFYGLVIAEFLFWGEGKGASPLLLALRPRRLLCAANCIYCDALVRAPLPTSPSQLWPQPLSLCCVEWTP [TSPYL2]

>  <median enrichment>
8.4

$$$$
>  <substance>
KITF [SNCAIP]

>  <median enrichment>
0.77

$$$$
>  <substance>
CSPMPAHL [CDNF]

>  <median enrichment>
7.02

$$$$
>  <substance>
LRMWKITCFYLELFNLKIRNCFLLLSQ [CCDC34]

>  <median enrichment>
26.1

$$$$
>  <substance>
SCVKSFSVFSTFIKTQDNSYWREILQM [ZNF708]

>  <median enrichment>
11.8

$$$$
>  <substance>
YCPRAHRQLQGALVANKQHL [RAB3C]

>  <median enrichment>
2.13

$$$$
>  <substance>
YYYYYYYYYY [Tyr10]

>  <median enrichment>
6.9

$$$$
>  <substance>
WRFPLPSSQPP [MEF2D]

>  <median enrichment>
2.36

$$$$
>  <substance>
KRKLKNGCLELVLQLL [REG1B]

>  <median enrichment>
6.65

$$$$
>  <substance>
KTTFPKENIRGFHC [CPVL]

>  <median enrichment>
0.477

$$$$
>  <substance>
SAVKFF [INTS8]

>  <median enrichment>
0.917

$$$$
>  <substance>
MALAVRVVYCGA [Degron KLHDC2]

>  <median enrichment>
5.57

$$$$
>  <substance>
SECTLQSWWFLRVGLDRVAAC [BPHL]

>  <median enrichment>
7.67

$$$$
>  <substance>
RGPALPPCTSPGAERS [PRMT1]

>  <median enrichment>
1.08

$$$$
>  <substance>
SGLLLY [MRPL20]

>  <median enrichment>
1.83

$$$$
>  <substance>
LIFFYQEG [PTEN]

>  <median enrichment>
5.69

$$$$
>  <substance>
WGATSFSTTMLLHFPTPTRPPSSPPTPFSHSHPHHRSLDCWEWKPGGVMAQVL [RAMP2]

>  <median enrichment>
8.95

$$$$
>  <substance>
KPSEFSL [CD163]

>  <median enrichment>
0.535

$$$$
>  <substance>
QRLQCLLRRKIKFTSSKVTLEDRALGMSFFF [OR2C3]

>  <median enrichment>
5.9

$$$$
>  <substance>
GGGGGGG [Gly07]

>  <median enrichment>
2.97

$$$$
>  <substance>
KIFFSPIFLPASGDTAAVTREASLGGPDAQGESWSGESMSCDTTAGAICSPAFLSVGEGISEFILYPRLAFTKFKSLSMRPRP [PGPEP1]

>  <median enrichment>
11.5

$$$$
>  <substance>
KQGRWERDCLLPLLSSSCLEVEAV [GRM6]

>  <median enrichment>
6.27

$$$$
>  <substance>
GGGGGG [Gly06]

>  <median enrichment>
2.43

$$$$
>  <substance>
WPLDVGKPCGPPLITSSPRMTAEPQASGAGLMYPNLGQHDCRSIQSLPAPSMKGPPKTVLGTQCVAGSPPS [MINDY4]

>  <median enrichment>
0.736

$$$$
>  <substance>
RPLLRVCPAPFHQ [DYRK4]

>  <median enrichment>
1.43

$$$$
>  <substance>
SDDILSPCVAFYLRFPRPAMFSSSPFSLYKNSFSRKTLISIVYMSLWLRH [ACTR3C]

>  <median enrichment>
17.1

$$$$
>  <substance>
SQDLVGGTGNWGWEGGNKDIWPS [RNF25]

>  <median enrichment>
1.76

$$$$
>  <substance>
RNLNGHYKLSNST [ARMC4]

>  <median enrichment>
1.99

$$$$
>  <substance>
QGVSLSLSFCIICLAECVYRLPKFTKKL [VNN2]

>  <median enrichment>
10.5

$$$$
>  <substance>
KKCEECGKSFS [ZNF676]

>  <median enrichment>
0.361

$$$$
>  <substance>
LTYLSLSRSQAVRGNRSHLLSLQASVCLCLRTWILDFNDAVDNDGRKGVGC [MGA]

>  <median enrichment>
8.5

$$$$
>  <substance>
WADPVGIRAAPSGAGTAGTAAILLLLVFFLLSKINCGNILVSCDVRCSFVVKFAIDIEIMTSVFPEIKHVSTQDFLDHSRKCQ [KISS1R]

>  <median enrichment>
10.9

$$$$
